Biological target: LPA2 (Homo sapiens, UniProt Q9HBW0)
Construct: expressed in transfected cells
Sequence (Q9HBW0 whole entry, species assumed): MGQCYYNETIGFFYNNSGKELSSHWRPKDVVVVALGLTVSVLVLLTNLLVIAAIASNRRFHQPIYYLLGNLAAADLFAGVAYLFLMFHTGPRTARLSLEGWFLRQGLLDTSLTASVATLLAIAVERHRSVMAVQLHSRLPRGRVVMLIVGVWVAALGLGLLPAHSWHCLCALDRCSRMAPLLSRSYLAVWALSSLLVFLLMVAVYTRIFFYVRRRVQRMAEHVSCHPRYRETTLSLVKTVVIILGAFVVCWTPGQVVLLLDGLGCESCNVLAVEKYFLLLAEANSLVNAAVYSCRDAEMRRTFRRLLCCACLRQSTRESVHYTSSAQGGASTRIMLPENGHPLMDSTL
Assay: Ca2+ mobilization assay, antagonist activity at LPA2
Format: cell-based
quantityKind: Emax at 10 µM (%)
Respond numerically; units are % and should not be typed.

Per the record, COC(=O)COc1ccc(-c2n[nH]c(C)c2Oc2ccc(Cl)cc2Cl)c(O)c1 has Emax at 10 µM of 74

The reported Emax at 10 µM of the compound Cc1[nH]nc(-c2ccc(OCC(=O)O)cc2)c1Oc1ccc(Cl)cc1Cl was 11

GET /value?item= Cc1[nH]nc(-c2ccc(OCC(=O)O)cc2O)c1Oc1cccc(Cl)c1 &field=Emax at 10 µM returns 45

Emax at 10 µM recorded for this compound, Cc1[nH]nc(-c2ccc(OCCCCC(=O)O)cc2O)c1Oc1ccc(Cl)cc1Cl , is 21

Please fill in: Emax at 10 µM reported for Cc1[nH]nc(-c2ccc(OCC(=O)O)cc2O)c1Oc1ccc(Cl)cc1 = 60

Measured Emax at 10 µM of Cc1[nH]nc(-c2ccc(OCC(=O)O)cc2O)c1Oc1ccc(Cl)cc1Cl : 84

New cases:
Given item Cc1[nH]nc(-c2ccc(OCC(=O)O)cc2O)c1Oc1ccccc1 , the value recorded as its Emax at 10 µM is 20

Briefly, Emax at 10 µM measured for Cc1[nH]nc(-c2ccc(OCC(N)=O)cc2O)c1Oc1ccc(Cl)cc1Cl : 44

Emax at 10 µM for Cc1c(Oc2ccc(Cl)cc2Cl)c(-c2ccc(OCC(=O)O)cc2O)nn1C is 73

###

Target: LPA2 (Homo sapiens, UniProt Q9HBW0)
quantityKind: pKd
Please report pKd as the negative decimal logarithm of the molar concentration, giving only the number.

Summary line: Cc1[nH]nc(-c2ccc(OCc3nnn[nH]3)cc2O)c1Oc1ccc(Cl)cc1Cl [Compound 54] , LPA2 (Homo sapiens, UniProt Q9HBW0), reported pKd = 8.89

###

Target: LPA2 (Homo sapiens, UniProt Q9HBW0)
Construct: expressed in transfected cells
Assay: Ca2+ mobilization assay, antagonist activity at LPA2
Type: cell-based
Conditions: antagonism of 10 μM LPA; mean ± s.e.m.
Lab note: cut-off is 2 µM. Strictly less in IC50 is Satisfied. Exactly 2 µM or more is Not satisfied.

Worked examples follow.
Qu. For Cc1noc(-c2ccc(CSCCC(=O)O)cc2)c1NC(=O)OC(C)c1ccccc1Cl (centres unmarked) [Ki16425, reference compound] , is the recorded IC50 below the cut-off of 2 µM?
Ans. Satisfied

Qu. # strict comparison: is reported IC50 < 2 µM? input = COC(=O)COc1ccc(-c2n[nH]c(C)c2Oc2ccc(Cl)cc2Cl)c(O)c1
Ans. Not satisfied

Qu. Please indicate whether the reported IC50 of Cc1[nH]nc(-c2ccc(OCC(=O)O)cc2O)c1Oc1ccc(F)cc1F is strictly below 2 µM.
Ans. Not satisfied

Qu. Does Cc1[nH]nc(-c2ccc(OCC(=O)O)cc2O)c1Oc1ccc(Cl)cc1Cl have IC50 strictly under 2 µM?
Ans. Not satisfied

// switching to the query molecule
Qu. Lab log: compare recorded IC50 with 2 µM; is it strictly lower for Cc1[nH]nc(-c2ccc(OCc3nnn[nH]3)cc2O)c1Oc1ccc(Cl)cc1Cl ?
Ans. Satisfied

###

Assay: Metabolic stability in human liver microsomes
Assay type: in vitro ADME
Conditions: male, liver microsomes (pooled), 1 mg/mL protein, NADPH, 37 °C, read-out: stability (t1/2, min) HLMs
quantityKind: half-life at 5 μM (min)
Give just the numeric value; min need not be written.

Item: Cc1[nH]nc(-c2ccc(OCc3nnn[nH]3)cc2O)c1Oc1ccc(Cl)cc1Cl | half-life at 5 μM: 97
